Tested on: A549
protocol: Cytotoxicity against human A549 cells after 72 hrs by MTT assay
Type: functional, cell-based
setup conditions: A549, 72 h
Would you mind telling me the reported IC50 of each entry?

May I ask what IC50 has been recorded for COc1ccc(S(=O)(=O)c2nc3ccccc3nc2N2CCOCC2)cc1 ?
19.4 µM

Value lookup for IC50; key = O=S(=O)(c1ccccc1)c1nc2ccccc2nc1N1CCCCC1
> 50 µM

Any idea what its IC50 is? The compound is O=S(=O)(c1ccc(F)cc1)c1nc2ccccc2nc1N1CCOCC1
5.64 µM

Bench note: what IC50 did O=S(=O)(c1ccc(Br)cc1)c1nc2ccccc2nc1N1CCOCC1 show?
6.65 µM

Provide the reported IC50 of each entry below, same order.
1. Cc1ccc(S(=O)(=O)c2nc3ccccc3nc2N2CCOCC2)cc1
2. c1ccc(Sc2nc3ccccc3nc2N2CCOCC2)cc1

1. 3.3 µM
2. 7.25 µM

These measurements were taken from ChEMBL document CHEMBL3217629.
